# assay_details: Metabolic stability in human plasma assessed as parent compound remaining at 10 uM measured after 30 mins
# Type: ADME, cell-free
# condition_info: read-out: Stability
measured_parameter: remaining at 0.5 h, 10 µM (%)
Answers are plain numbers, in %.

### Prompt Provide remaining at 0.5 h, 10 µM value for the following molecule: O=C(CCc1c[nH]c2ccccc12)Nc1cc(C(F)(F)F)cc(C(F)(F)F)c1
### Response 97.4

* * *

# assay_details: Inhibition of PLD in human A549 cells measured after 1 hr by amplex red phospholipase D assay
# Format: cell-based
measured_parameter: IC50 (µM)
Answers are plain numbers, in µM.

Would you please look over these solved cases?
INSERT INTO assay_data (chemical_smiles, measured_parameter, assay_value) VALUES
  ('O=C(Oc1cc(C(F)(F)F)cc(C(F)(F)F)c1)c1cc2cc(F)ccc2[nH]1', 'IC50', 3.1),
  ('O=C(CCc1c[nH]c2ccccc12)Nc1cc(C(F)(F)F)cc(C(F)(F)F)c1', 'IC50', 1.97);

# input for lookup
### Prompt Provide IC50 value for the following molecule: O=C(Nc1ccc(O)c(O)c1)c1cc2cc(F)ccc2[nH]1
### Response 4.31
